- Assayed system: human chemokine receptor 2 isoform B (Homo sapiens, UniProt P41597)
- Sequence (P41597 1-360 isoform P41597-2): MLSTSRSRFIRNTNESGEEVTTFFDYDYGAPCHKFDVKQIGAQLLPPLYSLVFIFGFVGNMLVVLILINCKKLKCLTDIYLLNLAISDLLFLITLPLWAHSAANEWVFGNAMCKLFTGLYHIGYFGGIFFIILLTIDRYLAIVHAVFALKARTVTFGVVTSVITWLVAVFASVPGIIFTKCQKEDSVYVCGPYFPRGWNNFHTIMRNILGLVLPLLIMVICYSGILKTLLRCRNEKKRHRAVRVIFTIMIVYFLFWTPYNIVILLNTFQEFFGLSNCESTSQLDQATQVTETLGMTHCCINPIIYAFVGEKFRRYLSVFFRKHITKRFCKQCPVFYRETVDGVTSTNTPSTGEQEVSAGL
- Assay info: Calcium mobilization assay
- Condition summary: CHOK1-CCR2B-A5 cells; antagonist activity against 20 nM MCP-1; FLIPR, Fluo-4
pIC50: −log10 of the molar value.
Experimental endpoint: pIC50

Illustrative cases are given below, each with its answer.
INSERT INTO measurements (compound, experimental_endpoint, reading) VALUES
  ('CCc1nc(-c2cccc(OC(F)(F)F)c2)n(C)c1C(=O)N1CCC(N2CCCC2)CC1', 'pIC50', 7.15),
  ('Cn1c(-c2cccc(OC(F)(F)F)c2)nc(I)c1C(=O)N1CCC(N2CCC[C@@H]2CO)CC1', 'pIC50', 6.80),
  ('CCCCCCc1cccc(-c2nc(I)c(C(=O)N3CCCN(CCO)CC3)n2C)c1', 'pIC50', 6.89),
  ('Cn1c(-c2cccc(OC(F)(F)F)c2)nc(-c2cncnc2)c1C(=O)N1CCC(N2CCCC2)CC1', 'pIC50', 7.05);

(a) Cn1c(-c2cccc(C(F)(F)F)c2)nc(I)c1C(=O)N1CCC(N2CCCC2)CC1
(b) CCCCCCc1cccc(-c2nc(I)c(C(=O)N3CCC(N(CC)CC)C3)n2C)c1 (racemic)
(c) C#Cc1nc(-c2cccc(CCCCCC)c2)n(C)c1C(=O)N1CCC(N2CCCC2)CC1
(d) CCCCCCc1cccc(-c2nc(C#N)c(C(=O)N3CCC(N4CCCC4)CC3)n2C)c1
stdin: Let's sort these by pIC50, smallest first. Go ahead? # output: labels, in the requested order
stdout: b, d, c, a
(b: 6.92, d: 7.12, c: 7.46, a: 7.74)

These measurements were taken from patent US7935707B2.
